target: P2Y12 receptor (Homo sapiens, UniProt Q9H244); experiment: Functional inhibition of 2-Me-S-ADP induced P2Y12 signalling (35S-GTPγS binding, membranes from P2Y12 transfected CHO-cells); conditions: EC80 concentration of agonist 2-methyl-thio-adenosine diphosphate, 30° C. for 45 min
Sequence (Q9H244 whole entry): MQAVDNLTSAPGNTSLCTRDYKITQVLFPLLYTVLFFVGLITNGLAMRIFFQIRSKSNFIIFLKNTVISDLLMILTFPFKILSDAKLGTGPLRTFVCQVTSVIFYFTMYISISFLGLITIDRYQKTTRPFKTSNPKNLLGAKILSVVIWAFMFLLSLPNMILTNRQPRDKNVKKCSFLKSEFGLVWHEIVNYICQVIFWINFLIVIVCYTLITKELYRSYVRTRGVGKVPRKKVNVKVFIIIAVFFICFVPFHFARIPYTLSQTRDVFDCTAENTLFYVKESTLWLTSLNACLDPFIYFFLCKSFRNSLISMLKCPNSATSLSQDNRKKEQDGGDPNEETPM
property.label: pIC50
Numbers only, as −log10 of the molar value.

[
  {
    "compound": "CCOC(=O)c1cc(C#N)c(N2CCN(Cc3cn(-c4ccccc4)nn3)CC2)nc1C [Example 2]",
    "pIC50": 6.16
  }
]

Using the record for CCOC(=O)c1cc(C#N)c(N2CCC(c3nnc(-c4ccccc4)[nH]3)CC2)nc1C [Example 3] , report its pIC50.
6.48
